Quick list: pIC50 per entry.
- Target Or Test System: SCD5 (Homo sapiens)
- Construct: host or cells: S. cerevisiae ole1Δ strain (W303 pdr1Δ pdr3Δ background), plasmid pRS316 with TDH3 promoter and CYC1 terminator
- Protocol Summary: Growth inhibition of humanized yeast strain expressing SCD5 as sole desaturase
- Assay type: cell-based
- Experimental Parameters: humanized yeast strain, 40 h
Note: pIC50 values are expressed as the negative base-10 logarithm of concentration in M.

CCC(=O)N1CCC(c2noc(-c3ccc(F)c(N4CCOCC4)c3)n2)CC1 [Compound 1164]
6.27
CC1(OC(=O)N2CCN(c3noc(-c4ccnc(NC5COC5)c4)n3)CC2)CC1 [Compound 1008]
5.69
COC(=O)N1CCC(c2noc(-c3ccc4cnn(C5CCN(C)C5=O)c4c3)n2)CC1 (centres unmarked) [Compound 1101]
4.78
CC1(OC(=O)N2CCC(c3nc(-c4ccc5cnn(C6CCOC6)c5c4)no3)CC2)CC1 (centres unmarked) [Compound 777]
8.00
CC(C)(C)OC(=O)N1CCC(c2nc(-c3ccnc(C4CCOC4)c3)no2)CC1 (centres unmarked) [Compound 992]
7.09

Could you now look at the following compound, please?
Reported pIC50 for CCC(=O)N1CCC(c2noc(-c3ccc4cnn(C5COC5)c4c3)n2)CC1 [Compound 891] : what is it?
8.00

---

- Target Or Test System: SCD5 (Homo sapiens)
- Construct: host or cells: S. cerevisiae ole1Δ strain (W303 pdr1Δ pdr3Δ background), plasmid pRS316 with TDH3 promoter and CYC1 terminator
- Protocol Summary: Growth inhibition of humanized yeast strain expressing SCD5 as sole desaturase
- Format: cell-based
- Experimental Parameters: humanized yeast strain, 40 h
// returns false unless IC50 is strictly below 500 nM, in which case true

Here are 2 compounds together with their reported answers.
CC(C)(C)OC(=O)N1CCC(c2nc(-c3ccc4cncn4c3)no2)CC1
false
O=C(N1CCC(c2noc(-c3cc(F)c4cnn(C5COC5)c4c3)n2)CC1)C1(F)CC1
true

Find out if reported IC50 for CC1(OC(=O)N2CCC(c3noc(-c4ccnc([C@@H]5CCOC5)c4)n3)CC2)CC1 is less than 500 nM
true

Then what about the compound CN1CC2CN(c3nc(-c4ccc5cnn(C6COC6)c5c4)no3)CCN2C1=O (stereo not drawn) ?
false

Then what about the compound O=C(N1CCN(c2noc(-c3ccc4cnn(C5COC5)c4c3)n2)CC1)C1(F)CC1 ?
true

Then what about the compound CCC(=O)N1CCC(c2noc(-c3ccc4cnn([C@@H]5CCOC5)c4c3)n2)CC1 ?
true

Then what about the compound O=C(N1CCC(c2noc(-c3ccnc(Cl)c3)n2)CC1)C1(F)CC1 ?
false

Then what about the compound CC(C)C(=O)N1CCC(c2noc(-c3ccnc(C4CCOC4)c3)n2)CC1 (stereo not drawn) ?
false

Then what about the compound Cc1nn(C)c2cc(-c3nc(C4CCN(C(=O)OC5CCC5)CC4)no3)ccc12 ?
false

Then what about the compound COCC(C)(C)n1ncc2ccc(-c3noc(C4CCN(C(=O)CC(C)(C)C)CC4)n3)cc21 ?
false

---

- Target Or Test System: SCD5 (Homo sapiens, UniProt Q86SK9)
- Construct: host or cells: S. cerevisiae ole1Δ strain (W303 pdr1Δ pdr3Δ background), plasmid pRS316 with TDH3 promoter and CYC1 terminator
- Sequence (Q86SK9 whole entry): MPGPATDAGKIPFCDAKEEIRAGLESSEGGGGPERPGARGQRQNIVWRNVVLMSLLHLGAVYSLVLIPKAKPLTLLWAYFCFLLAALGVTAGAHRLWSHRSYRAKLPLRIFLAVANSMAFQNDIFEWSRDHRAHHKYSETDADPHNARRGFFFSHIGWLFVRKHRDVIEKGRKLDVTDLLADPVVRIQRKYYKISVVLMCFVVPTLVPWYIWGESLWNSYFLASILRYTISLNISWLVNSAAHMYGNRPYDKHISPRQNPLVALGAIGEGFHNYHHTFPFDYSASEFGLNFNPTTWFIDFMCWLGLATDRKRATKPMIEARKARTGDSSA
- Protocol Summary: Growth inhibition of humanized yeast strain expressing SCD5 as sole desaturase
- Format: cell-based
- Experimental Parameters: humanized yeast strain expressing SCD5
Quick list: IC50 per entry.

Please review the entries below; each comes with its answer.
COc1ccc(-c2noc(C3CCN(C(=O)CNCc4ccccc4)CC3)n2)cc1OC [Compound 30]
> 45 µM
Cc1nn(C)c2cc(-c3noc(C4CCN(C(=O)C(C)N5Cc6ccccc6C5=O)CC4)n3)ccc12 (stereo not shown) [Compound 141]
> 45 µM
COc1ccc(-c2noc(C3CCN(C(=O)CNC(=O)c4ccccn4)CC3)n2)cc1OC [Compound 145]
> 45 µM

Reported IC50 for CC(C)n1ncc2ccc(-c3noc(C4CCN(C(=O)CNC(=O)c5ccc(Cl)cc5)CC4(F)F)n3)cc21 (stereo not shown) [Compound 521] : what is it?
8.79 µM

Then what about the molecule Cc1nn(C)c2cc(-c3noc(C4CCN(C(=O)C5CC(=O)N(c6ccccn6)C5)CC4)n3)ccc12 (stereo not shown) [Compound 195] ?
> 45 µM

Then what about the molecule Cc1nn(C)c2cc(-c3noc(C4CCN(C(=O)CNC(=O)c5ccc(Cl)cc5)CC4)n3)ccc12 [Compound 269] ?
> 45 µM

Then what about the molecule COc1ccc(-c2noc(C3CCN(CCNC(=O)c4ccccc4)CC3)n2)cc1OC [Compound 32] ?
> 45 µM

Then what about the molecule COc1ccc(-c2noc(C3CCN(C(=O)CNC(=O)c4ccc(Cl)cc4)CC3)n2)cc1OC [compound 27] ?
> 45 µM

Then what about the molecule CCOC(=O)C(C)(C)n1cc2ccc(-c3noc(C4CCN(C(=O)CNC(=O)c5ccccc5)CC4)n3)cc2n1 [Compound 194] ?
> 45 µM

Then what about the molecule O=C(NCC(=O)N1CCC(c2nc(-c3ccccc3F)no2)CC1)c1ccccc1 [Compound 43] ?
> 45 µM

Then what about the molecule CC(C)n1ncc2ccc(-c3noc(C4CCN(C(=O)c5ccsn5)CC4)n3)cc21 [Compound 588] ?
1.86 µM

---

- Target Or Test System: Ole1 (Saccharomyces cerevisiae, UniProt P21147)
- Construct: expressed in transfected cells; host or cells: S. cerevisiae ole1Δ strain (W303 pdr1Δ pdr3Δ background), plasmid pRS316 with TDH3 promoter and CYC1 terminator
- Sequence (P21147 whole entry): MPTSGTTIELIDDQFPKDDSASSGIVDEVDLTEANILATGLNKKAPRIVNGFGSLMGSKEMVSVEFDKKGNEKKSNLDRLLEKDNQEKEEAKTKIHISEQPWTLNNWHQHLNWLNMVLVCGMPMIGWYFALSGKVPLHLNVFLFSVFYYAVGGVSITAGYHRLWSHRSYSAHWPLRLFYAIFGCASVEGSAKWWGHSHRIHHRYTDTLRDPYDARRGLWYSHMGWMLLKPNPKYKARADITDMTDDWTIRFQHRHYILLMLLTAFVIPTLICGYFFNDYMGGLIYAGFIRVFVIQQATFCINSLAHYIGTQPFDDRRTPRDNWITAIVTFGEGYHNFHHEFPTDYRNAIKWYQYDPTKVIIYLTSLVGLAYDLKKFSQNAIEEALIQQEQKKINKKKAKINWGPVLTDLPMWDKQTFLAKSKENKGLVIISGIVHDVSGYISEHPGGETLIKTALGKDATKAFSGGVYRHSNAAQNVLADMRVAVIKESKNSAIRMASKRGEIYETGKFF
- Protocol Summary: Growth inhibition of yeast strain expressing Ole1 as sole desaturase
- Assay type: cell-based
- Experimental Parameters: yeast strain expressing Ole1 as sole desaturase
Readout: OLE1 % Max Inhibition (%)
Numbers only; they are read as %.

Please review the entries below; each comes with its answer.
Cc1ccc(-c2noc(C3CCN(C(=O)[C@H]4CC(=O)N(c5ccc(C)c(C)c5)C4)CC3)n2)cc1 (single isomer, unassigned) [Compound 61]
71.50
Cc1nn(C)c2cc(-c3noc(C4CCN(C(=O)CNC(=O)c5ccsc5)CC4)n3)ccc12 [Compound 222]
3.59
COc1ccc(-c2noc(C3CCN(C(=O)CNC(=O)C4CCCCC4)CC3)n2)cc1OC [Compound 48]
8.16
COc1ccc(N2CC(C(=O)N3CCC(c4nc(-c5ccc6c(C)nn(C)c6c5)no4)CC3)CC2=O)cc1 (stereo not shown) [Compound 206]
5.25

Reported OLE1 % Max Inhibition for Cc1nn(C)c2cc(-c3noc(C4CCN(C(=O)C(CO)N5Cc6ccccc6C5=O)CC4)n3)ccc12 (stereo not shown) [Compound 129] : what is it?
3.25

Then what about the compound CC(C)(CO)n1ncc2ccc(-c3noc(C4CCN(C(=O)C5CC(=O)N(c6ccccc6)C5)CC4)n3)cc21 (stereo not shown) [Compound 203] ?
100.03

Then what about the compound CCOC(=O)C(C)(C)n1cc2ccc(-c3noc(C4CCN(C(=O)CNC(=O)c5ccccc5)CC4)n3)cc2n1 [Compound 194] ?
60.71

---

Quick list: OLE1 % Max Inhibition per entry.
- Target Or Test System: Ole1 (Saccharomyces cerevisiae, UniProt P21147)
- Construct: expressed in transfected cells; host or cells: S. cerevisiae ole1Δ strain (W303 pdr1Δ pdr3Δ background), plasmid pRS316 with TDH3 promoter and CYC1 terminator
- Protocol Summary: Growth inhibition of yeast strain expressing Ole1 as sole desaturase
- Assay type: cell-based
- Experimental Parameters: yeast strain expressing Ole1 as sole desaturase
- Method: Strain oleΔ (yeast ole1 deletion mutant) was constructed by deleting OLE1 with NAT-MX6 in BY4741, amplifying the deletion cassette from the genomic DNA of the resulting strain with primers flanking the ORF by 1000 bp upstream and downstream, transforming the resulting deletion cassette into W303 pdr1Δ pdr3Δ, and plating transformants on YPD media containing G418 (200 μg/mL) and nourseothricin ([…]) with 0.01% TWEEN®-20 and 0.5 mM oleic and palmitoleic acids. […]
Numbers only; they are read as %.

Please review the entries below; each comes with its answer.
Cc1nn(C)c2cc(-c3nsc(C4CCN(C(=O)CNC(=O)c5ccccc5)CC4)n3)ccc12 [Compound 250]
4.41
Cc1nn(C)c2cc(-c3noc(C4CCN(C(=O)C5CC(=O)N(c6ccccc6)C5)CC4)n3)cnc12 (stereo not drawn) [Compound 138]
3.94
CC(C)(CO)n1cc2ccc(-c3noc(C4CCN(C(=O)C5CC(=O)N(c6ccccc6)C5)CC4)n3)cc2n1 (stereo not drawn) [Compound 201]
85.29
O=C(CN1Cc2ccccc2C1=O)N1CCC(c2nc(-c3ccc4nonc4c3)no2)CC1 [Compound 182]
124.27
Cn1c(=O)[nH]c2ccc(-c3noc(C4CCN(C(=O)C5CC(=O)N(c6ccccc6)C5)CC4)n3)cc21 (stereo not drawn) [Compound 134]
93.94

Could you now look at the following compound, please?
Reported OLE1 % Max Inhibition for CC(C)(CO)n1cc2ccc(-c3noc(C4CCN(C(=O)CNC(=O)c5ccccc5)CC4)n3)cc2n1 [Compound 202] : what is it?
94.93
